- System: IGROV1 ovarian
- assay.summary: NCI tumour cell line growth inhibition, 48 h
property: TGI

These solved cases illustrate the format of a correct answer.
CCN(CC)Cc1nc(C2CCC([N+](=O)[O-])O2)no1 (configuration not stated); > 100 µM
Cc1ccc(CS(=O)(=O)C/N=c2\sc3ccccc3nc2/C=C(\O)c2ccc(Cl)cc2)cc1; > 10 µM
O=C1CC(=O)c2c(Cl)sc(Cl)c21; > 100 µM
Cc1ccc2c(=O)c(-c3nnc(N)s3)c[nH]c2n1; > 100 µM
COC(=O)Nc1nc2cc3c(cc2s1)OCCO3; > 50 µM

# batch: return TGI for each of the 5 compounds below
1. CN(C)CCN=Cc1c2ccccc2c(=O)n2c1oc1ccccc12
2. O=C(Nc1ccccc1Br)c1cccc([N+](=O)[O-])c1O
3. O=C(/C=C(\Nc1ccccc1O)c1ccccc1)C(=O)NC12CC3CC(CC(C3)C1)C2
4. COc1ccccc1S(=O)Nc1ccccc1 (configuration not stated)
5. CN1CCN(C(=S)N(C(=O)c2ccco2)c2ccccc2)CC1

27.6 µM
> 59.7 µM
> 10 µM
> 100 µM
> 100 µM

Answer for every listed entry: what is its TGI? The entries follow.
1. CCOC(=O)C(=O)N=Nc1nc2c(O)c3ccccc3c(O)c2s1
2. COc1ccc(-n2c(C)nc3ccc(NC4OCC(O)C(O)C4O)cc3c2=O)cc1 (configuration not stated)

1. 14.6 µM
2. > 100 µM

* * *

MDA-MB-435 data, read-out GI50

CNC(C)C(=O)N[C@H](C(=O)N1CCC[C@@H]1CN(CCc1ccccc1)C(=O)C(F)(F)F)[C@H](C)OCC#CC#CCO[C@H](C)[C@H](NC(=O)[C@H](C)NC)C(=O)N1CCC[C@H]1CN(CCc1ccccc1)C(=O)C(F)(F)F (stereo not given in full); 1.63 µM
N#Cc1cccc(NC(=O)c2oc3ccccc3c2-c2cnn(-c3ccccc3)c2)c1; > 500 µM
COc1cc2c3c(n(C)c(=O)c2cc1OC)-c1cc2c(cc1/C3=C\CCCBr)OCO2; > 100 µM
CCN(CC)CCCC(Nc1c2ccc(Cl)cc2nc2ccc(OC)cc12)c1ccc(F)cc1 (stereo not given); 1.73 µM

Batch request: GI50 for each of the following compounds.
1. O=C1C(Cl)=C(Nc2cccc(O)c2)C(=O)N1c1ccc(Cl)c(Cl)c1
2. C#COc1cccc(Nc2ncnc3ncc(NC(=O)CCl)cc23)c1
3. CC(=O)[O-].CC(=O)[O-].[NH2-].[Pt+2].c1ccncc1
4. COc1cc(C2CC(c3cc(C)ccc3C)=NN2c2ccc(S(=O)(=O)NC(=O)NCc3ccccc3)cc2)cc(OC)c1OC (stereo not given)
5. C=C1C(=O)O[C@@H]2C[C@@H]1CC[C@@]1(C)O[C@@H]1CC[C@@]1(C)O[C@@H]1CC[C@@]2(C)O

1: 21.9 µM; 2: > 49.8 µM; 3: 53.2 µM; 4: 2.27 µM; 5: 17.4 µM

For reference, reported GI50 for `COC(=O)Nc1nc2cc3c(cc2s1)OCCO3` stands at > 50 µM

* * *

- System: ACHN renal
- assay.summary: NCI tumour cell line growth inhibition, 48 h
Please respond with reported GI50 for every item in the list.

O=C1c2ccccc2-c2c1c1ccccc1c(=O)n2CCCN1CCN(CCCn2c3c(c4ccccc4c2=O)C(=O)c2ccccc2-3)CC1; 22.4 µM
COc1ccc(C2=C(c3cc(OC)c(OC)c(OC)c3)C(=O)CC2)cc1; 1.8 µM
COC(=O)Nc1nc2cc3c(cc2s1)OCCO3; > 50 µM

Report GI50 for each item below.
1. CC[O-].Cc1ccc2cccc([O-])c2n1.Cc1ccc2cccc([O-])c2n1.Cc1ccc2cccc([O-])c2n1.[Ti+4]
2. CN(C)CCCNc1nccc(-c2c(-c3ccc(F)cc3)nn3cc(C(F)(F)F)ccc23)n1

50.3 µM
10.3 µM

* * *

Could you please report measured TGI for the items listed next?
- Tested on: SK-MEL-2 melanoma
- assay.summary: NCI tumour cell line growth inhibition, 48 h
Give bare numbers, in µM.

CCOc1ccc(/C=C/[N+](=O)[O-])cc1; 33

Look at each compound and report its TGI.
1. CC1=CCC[C@@H]2[C@@](C)(Cc3cc(O)ccc3O)[C@H](C)CC[C@@]12C
2. CC[CH2][Sn]([Cl])([Cl])[CH2]CC
3. CCOC(=O)c1c(C)n2c(=O)cc(C)c3c(OC(C)=O)c(OC(C)=O)cc1c32
4. Cc1c[nH]c(C(=O)O)c1-c1ccc2c(-c3ccccc3)nc3ccccc3n12
5. Cc1cc(C)cc(Sc2c([N+](=O)[O-])ncn2C)c1
6. CC1=C([Se]CC(OC(=O)[C@@H](CO)NC(=O)OC(C)(C)C)C(=O)NC(C)(C)C)C(=O)c2ccccc2C1=O (stereo partly specified)
7. Oc1cc(O)c2c(=S)cc(-c3ccc(Cl)cc3)oc2c1
8. CCOc1ccc(N=Nc2ccc3oc(=O)c(C(=O)Nc4ccc(OC)cc4)cc3c2)cc1

1. 27.9
2. 25.6
3. 29.8
4. 55.1
5. 25.8
6. 4.57
7. 7.46
8. 54.4

* * *

- Test system: BT-549 breast
- assay.summary: NCI tumour cell line growth inhibition, 48 h
Exercise: for every item that follows, state its recorded TGI.

COc1ccc(/C=C\c2cc(OC)c(OC)c(OC)c2)cc1OC(=O)c1cccc(Cn2cc(CCOC(=O)c3cccc(Cn4nnc5c4C(=O)c4ccccc4C5=O)c3)nn2)c1; 1.35 µM
CCCN(CCC)CCCNC(=O)c1cc2c(-c3ccc(OC)c(OC)c3)nn(C)c2s1; 87 µM
Cc1cc2c(cc1C)[n+](=O)c(N1CCN(c3ccc([N+](=O)[O-])cc3)CC1)c(C#N)n2[O-]; > 100 µM

TGI recorded for this compound, `CN(C)CC(CO)(CN(C)C)CN(C)C` , is > 100 µM

* * *

- Tested on: XF 498 CNS
- assay.summary: NCI tumour cell line growth inhibition, 48 h
I'd be grateful if you could share measured TGI for these entries.

Consider the worked cases shown below.
O=C(O)C#CCO; > 100 µM
O=C1C2CCC(C2)C12CC1(c3ccccc3)C(=O)c3ccccc3N1O2 (stereo not drawn); > 100 µM
COC(=O)C1CCC(Nc2cccc(C(F)(F)F)c2)=N1 (stereo not drawn); > 100 µM
CC1(C)CCc2cc3c(-c4ccccc4)cc(=O)oc3cc2O1; > 100 µM
c1ccc2c(c1)nc1n2CSC1; > 100 µM
O=C1c2nn(-c3ccccc3)nc2C(c2ccccc2)N1c1ccccc1 (stereo not drawn); > 100 µM

Go through the items and report each one's TGI.
1. CC12CC[C@H](O)C(C)(C)[C@H]1CC[C@](C)(O)C2COc1ccc2ccc(=O)oc2c1 (stereo partly drawn)
2. CC[C@@H](C(=O)[C@@H](C)[C@@H](O)[C@H](C)CCc1ccc(C)c(O)c1C(=O)O)[C@H]1O[C@](CC)([C@H]2CC[C@](O)(CC)[C@H](C)O2)C[C@@H]1C

["> 100 µM", "3.41 µM"]

I'm hoping you can list TGI for every molecule here, please.
1. Nc1ncnc2c1ncn2C1CCC(CO)O1 (stereo not drawn)
2. CC(=O)OC1CC2(c3ccccc3)C(=O)c3ccccc3N2O1 (stereo not drawn)
3. CC1=C(c2cc(C(=O)Nc3ccc(Cl)c(Cl)c3)nc(N)n2)Sc2ccccc2N1
4. CC(C)=CC(=O)OC1C2C(C)C(=O)OC2C(O)C(C)C2C=CC(=O)C21C (stereo not drawn)
5. CC(C)=CCc1c(C)cc2cc3c(c(O)c2c1O)C(O)=CC(=O)C3(CC=C(C)C)C/C=C(\C)CO (stereo not drawn)

> 100 µM
> 100 µM
> 100 µM
9.77 µM
53.5 µM

* * *

- Tested on: PC-3 prostate
- assay.summary: NCI tumour cell line growth inhibition, 48 h
property: GI50

Past entries and their recorded results:
CN(C)CCCNc1nccc(-c2c(-c3ccc(F)cc3)nn3cc(C(F)(F)F)ccc23)n1; 9.36 µM
c1ccc(-c2nn(-c3ccccc3)[n+](-c3cccc4ccccc34)n2)cc1; 0.583 µM

Let us examine a further case.
Per the record, NCC1OC(OC2C(CO)OC(OC3C(O)C(N)CC(N)C3OC3OC(CO)C(O)C(O)C3N)C2O)C(N)C(O)C1O (stereo not drawn) has GI50 of > 50 µg/mL

* * *

Give TGI for every item shown.
- Test system: RXF 393 renal
- assay.summary: NCI tumour cell line growth inhibition, 48 h
One number for each entry, in µM.

CC[O-].Cc1ccc2cccc([O-])c2n1.Cc1ccc2cccc([O-])c2n1.Cc1ccc2cccc([O-])c2n1.[Ti+4]; 70.9
CCCN(CCC)CCCNC(=O)c1cc2c(-c3ccc(OC)c(OC)c3)nn(C)c2s1; 31.1
COC(=O)[C@@]1(C)CC[C@]2(C)CC[C@]3(C)C4=CC=C5C(=CC(=O)C(O)=C5C)[C@]4(C)CC[C@@]3(C)[C@@H]2C1; 0.33

Let us examine a further case.
According to the records, this compound COc1cc(C2CC(c3cc(C)ccc3C)=NN2c2ccc(S(=O)(=O)NC(=O)NCc3ccccc3)cc2)cc(OC)c1OC (centres undefined) displays TGI of 8.17
